Fibroblast growth factor receptor 1 (Homo sapiens) IC50, compiled from various sources.

# lookup: COc1cc(OC)c(F)c(-c2cc3[nH]nc(-c4cnn(CCO)c4)c3cn2)c1F on Fibroblast growth factor receptor 1 (Homo sapiens), IC50 = < 100 nM

Observed IC50 on Fibroblast growth factor receptor 1 (Homo sapiens), entry C=CC(=O)Nc1cc(N(C)CCOC)ccc1Nc1ncc2cc(-c3c(Cl)c(OC)cc(OC)c3Cl)c3nccn3c2n1 , equals < 50 nM

Value (IC50, Fibroblast growth factor receptor 1 (Homo sapiens)) for record COc1cc(Nc2ncnc(-n3c(Nc4cccc(C(N)=O)c4)nc4ccccc43)n2)cc(OC)c1OC = < 780 nM

// returns IC50 for CCS(=O)(=O)c1cc(F)c(F)c(-c2cnn3cc(-c4cnn(C)c4)c(O[C@H]4CCOC4)nc23)c1 with Fibroblast growth factor receptor 1 (Homo sapiens); value = 10 to 30 nM

Let me check: COc1ccc(-c2ccc3c(c2)NC(=O)/C3=C2/CCc3c2[nH]c(C)c3C(=O)N2CCC[C@H]2CN2CCCC2)cc1 , system Fibroblast growth factor receptor 1 (Homo sapiens), measured IC50 is 230 nM

The value of IC50 recorded for COc1cc(CCc2cnc3[nH]c(-c4ccc(N5CCN(C)CC5)c(C#N)c4)cc3n2)cc(OC)c1 when tested on Fibroblast growth factor receptor 1 (Homo sapiens) reads < 100 nM

Summary line: COc1cc2nccc(Oc3ccc(NC(=O)NC(C)(C)C(F)(F)F)c(Cl)c3)c2cc1C(N)=O , Fibroblast growth factor receptor 1 (Homo sapiens), reported IC50 = 200 to 1000 nM

* * *

Several reports have described IC50 for Fibroblast growth factor receptor 1 (Homo sapiens, UniProt P11362); a selection of those results is presented here.

Sure, the documented IC50 for COCCN1CCC(Nc2ccc3c(c2)/C(=C(\c2ccc(OC)cc2)c2ncc[nH]2)C(=O)N3)CC1 is 50 to 500 nM

The compound listed as COc1cc(OC)c(F)c(-c2ncc3c(-c4ccc5c(c4)CCC(C(=O)N(C)C)O5)n[nH]c3n2)c1F (stereo not drawn) has a reported IC50 of < 100 nM

Reported IC50 of CNC(=O)c1cc(O)c(F)c(-c2cnn3cc(-c4cnn(C)c4)c(O[C@H]4CCOC4)nc23)c1 : 10 to 30 nM

Recorded result, COc1cc(Nc2ncnc(-n3c(NC(CCO)c4ccccc4)nc4ccccc43)n2)cc(OC)c1OC (stereo not drawn) , IC50: < 758 nM

Lab book: IC50 of COCCOc1cc(NC(=O)N2CCCc3cc(C(F)F)c(C=O)nc32)ncc1C#N noted as > 10000 nM

Looking up C=CC(=O)NCc1cc2c(cn1)CN(c1c(F)c(OC)cc(OC)c1F)C(=O)N2[C@H]1CCOC1 , I found its IC50 recorded as > 200 nM

* * *

Here's a roundup of IC50 values tested on Fibroblast growth factor receptor 1 (Homo sapiens), taken from various published works.

Known value: Fibroblast growth factor receptor 1 (Homo sapiens) IC50 of the compound Nc1nc2ccccc2n1-c1ncnc(Nc2cccc(-c3cnco3)c2)n1 equals < 1080 nM

Short answer on Fibroblast growth factor receptor 1 (Homo sapiens) for COc1cc(Nc2ncnc(N3CCCC4CCCCC43)n2)cc(OC)c1OC (stereo not shown) , IC50: 6010 to 8760 nM

Here O=C1OCc2ccc(Nc3ncnc(Nc4cc(-c5ccco5)n[nH]4)n3)cc21 was tested on Fibroblast growth factor receptor 1 (Homo sapiens), and its IC50 came to 1070 to 6390 nM

Item COc1cc(Nc2ncnc(-n3c(NCCc4ccccc4)nc4ccccc43)n2)cc(OC)c1OC was tested on Fibroblast growth factor receptor 1 (Homo sapiens); the reported IC50 is 804 to 4820 nM

# IC50 measured on Fibroblast growth factor receptor 1 (Homo sapiens) for item COc1cc(OC)c(F)c(-c2cc3[nH]nc(-c4ccc5c(c4)CC(C(=O)N(C)C)O5)c3cn2)c1F (single isomer, unassigned) = < 100 nM

CCN1CCC(Nc2ccc3c(c2)/C(=C(/c2nc(C)c[nH]2)c2cc(F)c(Cl)cc2Cl)C(=O)N3)CC1 on Fibroblast growth factor receptor 1 (Homo sapiens) gives IC50 = < 50 nM

Tested on Fibroblast growth factor receptor 1 (Homo sapiens): CCN1CCC(Nc2ccc3c(c2)/C(=C(\c2ccccc2)c2nc4cc(Cl)ccc4[nH]2)C(=O)N3)CC1 . Observed IC50: 50 to 500 nM

Record COc1cc(Nc2ncnc(Nc3ccc4[nH]ccc4c3)n2)cc(OC)c1OC / Fibroblast growth factor receptor 1 (Homo sapiens), IC50 recorded as 1020 to 6120 nM

IC50 on Fibroblast growth factor receptor 1 (Homo sapiens) for CCN(CC)CCNC(=O)c1c(C)[nH]c(/C=C2\C(=O)Nc3cccc(-c4cccc(Br)c4)c32)c1C is 240 nM

COc1cc2nccc(Oc3ccc(Nc4c(NCC(C)C)c(=O)c4=O)c(Cl)c3)c2cc1C(N)=O on Fibroblast growth factor receptor 1 (Homo sapiens) gives IC50 = 200 to 1000 nM

Note to self: IC50 of COc1cc(Nc2ncnc(Nc3ccc(C)cc3)n2)cc(OC)c1OC with Fibroblast growth factor receptor 1 (Homo sapiens) was 6530 to 9530 nM

Fibroblast growth factor receptor 1 (Homo sapiens) assay, compound COC(=O)Nc1ncc2c(c1C)N(C)C(=O)N(c1c(F)c(OC)cc(OC)c1F)C2 , recorded IC50 = < 100 nM

Test item COc1cc2nccc(Oc3ccc(NC(=S)N4CC(C)(O)C4)c(Cl)c3)c2cc1C(N)=O ; Fibroblast growth factor receptor 1 (Homo sapiens); reported IC50 was 200 to 1000 nM

// compound CC(C)S(=O)(=O)Nc1cc(-c2ccc(F)cc2)cc(-n2cnc3cc(-c4cnn(C)c4)ccc32)n1 , assay Fibroblast growth factor receptor 1 (Homo sapiens), IC50 value: 4.6 nM

Fibroblast growth factor receptor 1 (Homo sapiens) IC50 of CCN1CCC(Nc2ccc3c(c2)/C(=C(/c2nc(C)c[nH]2)c2cccc(F)c2F)C(=O)N3)CC1 is < 50 nM

I looked up COc1cc(Nc2ncnc(-n3c(Nc4cccc(C)c4)nc4ccccc43)n2)cc(OC)c1OC and its IC50 for Fibroblast growth factor receptor 1 (Homo sapiens) was < 827 nM

I looked up C=CC(=O)NCc1cc2c(cn1)CN(c1c(F)c(OC)cc(OC)c1F)C(=O)N2c1cccnc1 and its IC50 for Fibroblast growth factor receptor 1 (Homo sapiens) was > 200 nM

With Fibroblast growth factor receptor 1 (Homo sapiens) as the test system, COc1cc2nccc(Oc3ccc(NC(=S)Nc4ccccc4)c(Cl)c3)c2cc1C(N)=O showed IC50 of 200 to 1000 nM

// IC50 (Fibroblast growth factor receptor 1 (Homo sapiens)) for C=CC(=O)N1CC[C@H](Nc2ncc3cc(-c4c(Cl)c(OC)cc(OC)c4Cl)ccc3n2)C1 = 5.4 nM

Measured IC50 (Fibroblast growth factor receptor 1 (Homo sapiens)), entry COc1cc(OC)c(F)c(-c2cc3[nH]nc(-c4ccc5c(c4)CN([C@H]4CC[C@@H](O)CC4)C5=O)c3cn2)c1F : < 100 nM

Fibroblast growth factor receptor 1 (Homo sapiens) IC50 of COc1cc(OC)c(F)c(N2Cc3cnc(N)c(OCCN4CCN(C)CC4)c3N(C)C2=O)c1F is < 100 nM

// assay Fibroblast growth factor receptor 1 (Homo sapiens), entry COc1cc(CCc2cnc3[nH]c(-c4ccc(N5CCN(C)CC5)cc4)cc3n2)c(F)c(OC)c1 , IC50 value = < 100 nM

Record COc1cc2nccc(Oc3ccc(NC(=S)N4CC(F)C4)c(Cl)c3F)c2cc1C(N)=O has Fibroblast growth factor receptor 1 (Homo sapiens) IC50 equal to < 50 nM

Kindly note: Fibroblast growth factor receptor 1 (Homo sapiens), COc1cc(OC)c(F)c(-c2ncc3c(-c4cnn(C(C)C#N)c4)n[nH]c3n2)c1F (stereo not shown) , IC50 value reported: < 100 nM

COc1cc(OC)c(F)c(N2Cc3cnc(N)c(-c4cnn(C5CCNCC5)c4)c3N(C)C2=O)c1F tested on Fibroblast growth factor receptor 1 (Homo sapiens) gave IC50: < 100 nM
